Measured IC50 by item
biological target: TAK1/TAB1 (Homo sapiens, UniProt O43318); assay: Inhibition of recombinant human full-length His-tagged TAK1-TAB1 fusion protein (437 to 504 residues) expressed in baculovirus expression system using fluorescein-MAP2K1 as substrate preincubated for 30 mins followed by substrate addition and measured after 60 mins in presence of ATP by lanthascreen TR-FRET assay
Sequence (Q15750 whole entry, the tested form may be a part): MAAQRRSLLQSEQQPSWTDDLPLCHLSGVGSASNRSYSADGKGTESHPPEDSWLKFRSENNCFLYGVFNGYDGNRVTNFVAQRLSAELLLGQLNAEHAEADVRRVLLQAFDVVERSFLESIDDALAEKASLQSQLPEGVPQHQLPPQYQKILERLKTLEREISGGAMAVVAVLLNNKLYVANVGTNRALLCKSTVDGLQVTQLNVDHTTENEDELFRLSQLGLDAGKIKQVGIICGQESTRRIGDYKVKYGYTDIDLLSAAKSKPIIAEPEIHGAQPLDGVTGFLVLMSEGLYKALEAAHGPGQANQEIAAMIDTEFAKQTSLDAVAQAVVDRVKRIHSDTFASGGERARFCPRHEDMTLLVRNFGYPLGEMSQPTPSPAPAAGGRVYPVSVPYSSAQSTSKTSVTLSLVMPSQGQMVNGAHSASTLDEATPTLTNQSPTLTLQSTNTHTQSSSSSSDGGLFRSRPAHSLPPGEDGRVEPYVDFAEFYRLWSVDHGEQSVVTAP
Sequence (O43318 whole entry, the tested form may be a part): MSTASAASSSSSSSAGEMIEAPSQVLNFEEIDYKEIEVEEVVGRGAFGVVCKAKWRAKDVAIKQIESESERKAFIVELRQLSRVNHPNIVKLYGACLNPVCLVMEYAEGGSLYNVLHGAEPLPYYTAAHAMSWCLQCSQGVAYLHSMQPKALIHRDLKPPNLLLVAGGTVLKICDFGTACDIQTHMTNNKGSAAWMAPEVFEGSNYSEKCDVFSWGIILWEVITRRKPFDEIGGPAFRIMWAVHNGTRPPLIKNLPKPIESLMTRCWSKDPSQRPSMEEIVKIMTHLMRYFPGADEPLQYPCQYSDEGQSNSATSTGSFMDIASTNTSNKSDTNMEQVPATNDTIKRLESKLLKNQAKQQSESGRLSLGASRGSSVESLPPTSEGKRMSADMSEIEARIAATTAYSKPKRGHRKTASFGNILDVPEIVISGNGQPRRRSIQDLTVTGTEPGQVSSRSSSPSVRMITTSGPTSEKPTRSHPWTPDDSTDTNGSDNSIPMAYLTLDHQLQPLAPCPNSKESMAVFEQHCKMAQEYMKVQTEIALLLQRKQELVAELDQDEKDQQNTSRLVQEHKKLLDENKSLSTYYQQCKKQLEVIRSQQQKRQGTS

- Compound: "CNC(=O)CN(Cc1ccccc1OC(F)F)C(=O)c1c[nH]c(C(=O)N2CCC(OC)C2)n1 (stereo not drawn)"
  IC50: "> 10 µM"

Query: Consider the compound CNC(=O)CN(Cc1cccc(OC(F)F)c1)C(=O)c1c[nH]c(C(=O)N2CCCC2)n1 . State its measured IC50.
Reply: > 10 µM

Query: Consider the compound CNC(=O)CN(C(=O)c1c[nH]c(C(=O)N2CCCC2)n1)C(C)c1ccccc1OC(F)F (stereo not drawn) . State its measured IC50.
Reply: > 10 µM
